Test system: Saccharomyces cerevisiae
Assay: protein stability index of tFT-peptide fusion (C-terminal peptide) (PSI (0-1 scale)); higher = more stable (slower turnover)
Settings: genetic background: wild type; temperature: 30 C
Classify as follows. Reported protein stability index greater than or equal to 0.7: class 1. Reported protein stability index below: class 0.

Worked set:
sequence record	measured on	classification
YSRRRKILRKSY	Saccharomyces cerevisiae	class 0
KRNKITKKDRIN	Saccharomyces cerevisiae	class 0
WLSISNLVIACR	Saccharomyces cerevisiae	class 0
RESGASLWATMR	Saccharomyces cerevisiae	class 1

Incoming: Please indicate if the recorded protein stability index for PPPPPPPTSRPP meets or exceeds 0.7.
Outgoing: class 0

###

Tested on: Saccharomyces cerevisiae
Assay: protein stability index of tFT-peptide fusion (C-terminal peptide) (PSI (0-1 scale)); higher = more stable (slower turnover)
Details: genetic background: das1 deletion; temperature: 30 C
# maps each entry to its protein stability index

Take a look at these entries with their results.
sequence record	measured on	quantity kind	measured value
SSIQDLLSKLAN [RTT103 C-terminal 12 aa]	Saccharomyces cerevisiae	protein stability index	0.691
LKTPQEYESKAK [BOL1 C-terminal 12 aa]	Saccharomyces cerevisiae	protein stability index	0.702
LLSLPSSTLTKS [YIL068W-A C-terminal 12 aa]	Saccharomyces cerevisiae	protein stability index	0.703
SKLGINSGLCTN [ESL1 C-terminal 12 aa]	Saccharomyces cerevisiae	protein stability index	0.683
GGFLSFGGGYDE [AIM25 C-terminal 12 aa]	Saccharomyces cerevisiae	protein stability index	0.712

Incoming: Return reported protein stability index; argument: EGVSIIESTFIN [YLR225C C-terminal 12 aa]
Outgoing: 0.693

Incoming: What value of protein stability index has been reported for the following sequence? DEERPSKKPKVE [POB3 C-terminal 12 aa]
Outgoing: 0.731

Incoming: Any idea what its protein stability index is? The sequence is CERCKSELQSVH [SET6 C-terminal 12 aa]
Outgoing: 0.686

Incoming: What measured protein stability index goes with GAIYVLQWANPT [YBR287W C-terminal 12 aa] ?
Outgoing: 0.667

###

Test system: Saccharomyces cerevisiae
Experiment: protein stability index of tFT-peptide fusion (C-terminal peptide) (PSI (0-1 scale)); higher = more stable (slower turnover)
Conditions: genetic background: cdc53-1; temperature: 37 C
Outcome: YES for protein stability index of at least 0.6; NO for anything lower.

Incoming: Threshold query (protein stability index >= 0.6) on WFVCSGVYGSVM
Outgoing: YES

Incoming: Hello, I need to know if IEVGVAILLLGE has measured protein stability index not below 0.6. Thanks!
Outgoing: YES

Incoming: Is protein stability index at least 0.6? Consider GLPGYAWGRSGG
Outgoing: YES

Incoming: Threshold query (protein stability index >= 0.6) on WCGSWGVWMRLG
Outgoing: NO

Incoming: Could you please find out whether LHLLFLPFVVCL has protein stability index that meets 0.6 or exceeds it?
Outgoing: NO

###

Tested on: Saccharomyces cerevisiae
Experiment: protein stability index of tFT-peptide fusion (C-terminal peptide) (PSI (0-1 scale)); higher = more stable (slower turnover)
Conditions: genetic background: das1 deletion; temperature: 30 C
Quick reference: protein stability index of the listed items.
Quick one: just the number, no unit, thanks!

Consider the following illustrative entries.
sequence record	measured value
VYKDWEMNLMLS [ARG81 C-terminal 12 aa]	0.727
LIDSYCLGGESR [YPL034W C-terminal 12 aa]	0.688
LFFGGEKVHSLK [NGL3 C-terminal 12 aa]	0.728
HTRRAFLIPFVF [TSC13 C-terminal 12 aa]	0.547

Incoming: Look up protein stability index: VEGGGVQYTIVS [YDL023C C-terminal 12 aa]
Outgoing: 0.679

Incoming: Using the record for SHPTEQTEVSSQ [MHR1 C-terminal 12 aa] , report its protein stability index.
Outgoing: 0.697

###

This listing pairs sequences with measured protein stability index.
Tested on: Saccharomyces cerevisiae
Experiment: protein stability index of tFT-peptide fusion (C-terminal peptide) (PSI (0-1 scale)); higher = more stable (slower turnover)
Conditions: genetic background: wild type; temperature: 37 C
// print number alone

Check out these entries, answers already filled in.
sequence record	protein stability index
ACCGVFFFFFWL	0.433
VFGSRCLLTVVV	0.504
PYHAPRPPFSLF	0.111
CFVFYALFGFAV	0.431
VSSFLLPFCLLF	0.675
VSRAVCLWRRLL	0.124
GESCGGSERRVG	0.69
SIPVWTIELFAT	0.537

Incoming: Can you look up the measured protein stability index of PLFLRPLSVPVL for me?
Outgoing: 0.432

Incoming: State the recorded protein stability index for this entry: NFVVYHVAIRVP
Outgoing: 0.198

Incoming: Can you share its protein stability index? I mean this sequence: RARFMLGVLLST
Outgoing: 0.494

Incoming: GET /values?readout=protein stability index&item= WLFTSVTVFTFL
Outgoing: 0.347

Incoming: Data request, read-out protein stability index, for VFSFWVLCEVSV
Outgoing: 0.072

Incoming: Dear colleague, I am looking for the recorded protein stability index of the following sequence: YSCFFFLFSFFF
Outgoing: 0.502

Incoming: Which protein stability index is reported for this sequence? YSVFCPLFFIIY
Outgoing: 0.433

Incoming: Suppose we examine the sequence LAISTIQMFKRI ; what protein stability index value has been reported?
Outgoing: 0.568

###

System: Saccharomyces cerevisiae
Experiment: protein stability index of tFT-peptide fusion (C-terminal peptide) (PSI (0-1 scale)); higher = more stable (slower turnover)
Settings: genetic background: wild type; temperature: 37 C
Decide by protein stability index: equal to or exceeding 0.5 means 1, less means -1.

sequence record	classification
LNALSHCRAICS	-1
FELVWLCIIGAL	-1
VWACWCGWVLLM	-1
VRMMYSVQVWCG	-1
VCLFFFGYWCCL	1
VFVRDFLVSIVV	-1

Incoming: Would you say VVRSIVVYTCVF shows protein stability index at minimum 0.5?
Outgoing: -1

Incoming: API: above_or_equal(metric=protein stability index, cutoff=0.5) for item GSLLWSGWSTCY
Outgoing: 1

Incoming: Tell me whether protein stability index is at least 0.5 here: FSSWPFFSFYLS
Outgoing: 1

Incoming: Please tell me: is the sequence EWLITLRKCGVA at or over 0.5 in terms of protein stability index?
Outgoing: 1

Incoming: hey, is protein stability index for this one >= 0.5? SPLASLRFWCFC
Outgoing: 1

###

Test system: Saccharomyces cerevisiae
Experiment: protein stability index of tFT-peptide fusion (C-terminal peptide) (PSI (0-1 scale)); higher = more stable (slower turnover)
Conditions: genetic background: wild type; temperature: 30 C
quantity kind: protein stability index
Respond numerically, and do not add a unit to the figure.

sequence record	protein stability index
RNKEPRSSRQNS	0.578

Incoming: Look up protein stability index for this sequence: PPPSPSPPPSSP
Outgoing: 0.698

Incoming: May I ask what protein stability index has been recorded for PNLPRHPFPPSS ?
Outgoing: 0.74

Incoming: Data request, read-out protein stability index, for PPFRPRPPPPSA
Outgoing: 0.812

Incoming: Given the sequence VLCRSLAGCCFV , what is its reported protein stability index?
Outgoing: 0.709

Incoming: # protein stability index lookup, item VIAFFSVLKRYV
Outgoing: 0.421

Incoming: // query protein stability index value for entry TPPRHTRTSQTV
Outgoing: 0.648

Incoming: Give its protein stability index value. Item: PNPHGRPSIPAL
Outgoing: 0.65

Incoming: // lookup protein stability index for RRGVAEGVDGEG
Outgoing: 0.615

Incoming: Tell me the measured protein stability index of PIRPQSSVSLKQ , please.
Outgoing: 0.65

###

Test system: Saccharomyces cerevisiae
Assay: protein stability index of tFT-peptide fusion (C-terminal peptide) (PSI (0-1 scale)); higher = more stable (slower turnover)
Conditions: genetic background: das1 deletion; temperature: 37 C
Category scheme (protein stability index): group 1: < 0.5; group 2: ≥ 0.5 and < 0.7; group 3: ≥ 0.7

Past entries and their recorded results:
sequence record	classification
SCCIYVALCRWL	group 2
LIFFFCSWVFRF	group 1
PLSDPLRVILIM	group 2
EVTRMLRVVREI	group 3
FCCFFPFLWRVF	group 2
GAQQRVKERYIE	group 3

Incoming: In plain terms, what class is LLMLWWARVFSG ?
Outgoing: group 1

###

Test system: Saccharomyces cerevisiae
Test: protein stability index of tFT-peptide fusion (C-terminal peptide) (PSI (0-1 scale)); higher = more stable (slower turnover)
Settings: genetic background: das1 deletion; temperature: 30 C
Let's look at some sequences and their measured protein stability index.
Reply with just the number.

Recorded protein stability index, per entry:
sequence record	protein stability index
KKKAINEKAEQN [SEC62 C-terminal 12 aa]	0.679
MVNEWIHGGFSL [PRC1 C-terminal 12 aa]	0.73
TGKDVMKGALGF [SRO7 C-terminal 12 aa]	0.695
HFNSSSPQKVEF [LSM4 C-terminal 12 aa]	0.721
AVGPRQTGEECR [YER088W-B C-terminal 12 aa]	0.695
KEDPDLRQSYQG [MGS1 C-terminal 12 aa]	0.693
KNDKIHLFMYCT [YBR103C-A C-terminal 12 aa]	0.54
DPFLYSCSRVAF [YDL196W C-terminal 12 aa]	0.729
ELENEHVPWGKK [HNM1 C-terminal 12 aa]	0.714
VTLLQMKKKLEG [PET20 C-terminal 12 aa]	0.693

Incoming: Saccharomyces cerevisiae / protein stability index / IVTEWVKKPCLC [MUP3 C-terminal 12 aa] : value?
Outgoing: 0.546

Incoming: Record lookup: for Saccharomyces cerevisiae, what protein stability index belongs to CFLIGSSDTTSL [OPI6 C-terminal 12 aa] ?
Outgoing: 0.705

Incoming: Tell me reported protein stability index for ILGNYRDIFKQA [RGA2 C-terminal 12 aa] , tested with Saccharomyces cerevisiae.
Outgoing: 0.726

Incoming: Field: protein stability index (Saccharomyces cerevisiae). Entry: GGQNSPGDMAVA [YDL199C C-terminal 12 aa]
Outgoing: 0.692

Incoming: Please provide the recorded protein stability index for QRIKQNNFLSQL [MRPL37 C-terminal 12 aa] , tested on Saccharomyces cerevisiae.
Outgoing: 0.7

Incoming: Param readout= protein stability index; system= Saccharomyces cerevisiae; entry= ITQARANTWLVV [YOR024W C-terminal 12 aa] ; returns value.
Outgoing: 0.654

Incoming: Request - read-out protein stability index | tested on Saccharomyces cerevisiae | sequence RQSRERALGIKR [PRP22 C-terminal 12 aa]
Outgoing: 0.693

Incoming: Request - read-out protein stability index | tested on Saccharomyces cerevisiae | sequence DENRHSIRIPFN [USB1 C-terminal 12 aa]
Outgoing: 0.704

Incoming: Find the measured protein stability index: item ARNIWRLFLQKI [YLR126C C-terminal 12 aa] , target or system Saccharomyces cerevisiae.
Outgoing: 0.705

Incoming: Quick check: protein stability index on Saccharomyces cerevisiae, item VEVEYLLRRLEE [ARO7 C-terminal 12 aa] ?
Outgoing: 0.691

Incoming: Notebook: pull reported protein stability index for Saccharomyces cerevisiae, entry DNGRIIITGIPN [ECM5 C-terminal 12 aa]
Outgoing: 0.681

Incoming: I'm curious: which protein stability index was measured for RQLGSKQRKHRL [ECI1 C-terminal 12 aa] tested on Saccharomyces cerevisiae?
Outgoing: 0.786

Incoming: Quick check: protein stability index on Saccharomyces cerevisiae, item KRPPLPNMSFSW [YLL019W-A C-terminal 12 aa] ?
Outgoing: 0.776

Incoming: Identify the measured protein stability index of TGRDMMKSAVGF [SRO77 C-terminal 12 aa] for Saccharomyces cerevisiae.
Outgoing: 0.714

Incoming: Provide the documented protein stability index with Saccharomyces cerevisiae as the system for MSLLGLVPVDRM [MSR1 C-terminal 12 aa]
Outgoing: 0.696
